- Test system: MS2 coat protein
- assayText: apparent KD of MS2 coat protein, switch OFF state (with FMN for OFF switches, without FMN for ON switches); designed switch direction (-1 OFF switch, 1 ON switch): -1; higher = weaker reporter binding
- measurementSetup: FMN input: 0 or 200 uM; Eterna round: R93 (includes R88 designs)
Hi all, reminder that labels come from apparent KD of MS2 coat protein, split as low range: < 30 nM; mid range: ≥ 30 nM and < 100 nM; high range: ≥ 100 nM

Reference set (5 entries):
>  <sequenceEntry>
AAAAAACAUGAGGAUCACCCAUGUAAGGAUAUCUAAAAUAAAAGAAAAAUAAAGAAAAGGAGAAGGUACAUGCA [JL wbt mod 26]

>  <testSystem>
MS2 coat protein

>  <class>
mid range

$$$$
>  <sequenceEntry>
AGUAUGCGAGGAUAUACAUGAGGAUCACCCAUGUGAGAGAUAAAAGUGAGAAAGACAUGUAGAAGGCGCGUACA [JL Lego Mod 24]

>  <testSystem>
MS2 coat protein

>  <class>
low range

$$$$
>  <sequenceEntry>
AAGAAGUGAGGAUAUGCUGCUCGUCACUUGCGUGAUGAGUAGCAGAAGGCACAUGAGGAUCACCCAUGUGGGAA [Modifying Chris (69%) Late G segment, early G segment 3]

>  <testSystem>
MS2 coat protein

>  <class>
high range

$$$$
>  <sequenceEntry>
ACCUGACAUGAGGAUCACCCAUGUCAGGAUAUGACUUCGAAAAAAAAAAAAAACGAUGUCAGAAGGGACAUGGG [Design 70: Sub-opt P]

>  <testSystem>
MS2 coat protein

>  <class>
low range

$$$$
>  <sequenceEntry>
AACCAACAUGAGGAUCACCCAUGUCAGGAUAUGCAAACAACAAACAACAAACAACAAAGCAGAAGGGACAACAA [63%, Olong, 1]

>  <testSystem>
MS2 coat protein

>  <class>
low range

$$$$

Enquiry: # bin label for AGUUGGCGAGGAUAUACAUGAGGAUCACCCAUGUGAAAUCGCGAAAAAAUAGGGAAAAGUAGAAGGCGCUGACA [73%, Moding Norbert Elias, 18]
Return: low range

Enquiry: # bin label for AACAGGUCAGGAUAUGUGGAAAAAAUAAAAAAAAUAAAAACACAGAAGGGACAUGAGGAUCACCCAUGUAAACA [May 23]
Return: mid range

Enquiry: # bin label for AACUAGUCAGGAUAUACGAACAUGUCAAAAGACGUGAAGGGACAUGAGGAUCACCCAUGUAGAAGGGACUAGCA [74%, Web mod - With 1 less G's]
Return: high range

Enquiry: # bin label for UGCAUGUAAGGAUAUGCAACCGGCGCUCAUUAACCGGUCAAGCAGAAGGUACAUGAGGAUCACCCAUGUGUCCG [Esteleus]
Return: mid range

Enquiry: # bin label for ACAAGGUCAGGAUAUACAUGAGGAUCACCCAUGUGAGAAUUCGAUUAAAACACACAAAGUAGAAGGGACCAGGA [Ruby 83]
Return: mid range

Enquiry: # bin label for CGCAAGUCAGGAUAUUCGACAAGUAAAUCAGUAGAUCAAAAGAAGAAGGGACAUGAGGAUCACCCAUGUAAAUA [JR_Exc004_Sub403]
Return: low range

Enquiry: # bin label for AAAAACUCAGGAUAUAUUAUGGGACAAUGAAGGAAGAUAAAACAUGAGGAUCACCCAUGUAGAAGGGAGAAAAA [JR_Exclusion2_Sub2]
Return: mid range

Enquiry: # bin label for AGAAAGCUAGGAUAUACCUGGAGGGUUCGAAAUGAAAUAAAACAUGAGGAUCACCCAUGUAGAAGGAGCCCGAG [Veislela]
Return: low range

Enquiry: # bin label for AAAAAGUUAGGAUAUACAUGAGGAUCACCCAUGUACAUAUAUGGAGAAAAAAACAGUAGUAGAAGGGACAAAAA [EX2 Malc#12]
Return: low range

Enquiry: # bin label for GGGUCACAUGAGGAUCACCCAUGUAAGGAUAUGCUAGGGAUGGAAACCAGGCCGCAACGCAGAAGGUACUAAAG [Janelle Amethyst 18 Mod 13 - Jieux - Exclusion 1]
Return: mid range

Enquiry: # bin label for AAAAAGUGAGGAUAUGCAGUGGCCUGUAGACGCAAGCACUUGUAGAAGGCACAUGAGGAUCACCCAUGUUUAAA [EX4 Malc#30]
Return: low range

Enquiry: # bin label for AGGAAACAUGAGGAUCACCCAUGUGAGGAUAUUCAAAAGAAAAGAAAAGAAAGAAGAAGAAGAAGGCACAAGAA [Khayu]
Return: mid range

Enquiry: # bin label for CCCAUGUCAGGAUAUCAGUAGUAAAAAAAAAAAAUUACUACUGAGAAGGGACAUGAGGAUCACCCAUGUCCAAA [EX4 316: Super Stable 16]
Return: mid range

Enquiry: # bin label for AAAGAUGCAGGAUAUACAUGAGGAUCACCCAUGUUAGACCAAAAAUGGGAAAAAGAAAGUAGAAGGGCAUAAAA [Ex 3 May 34]
Return: high range

Enquiry: # bin label for GUGUACAGAGGAUAUACAUGGGCAUGAAAACAUGCAUCCUCACAUGAGGAUCACCCAUGUAGAAGGCUGUACAC [Ex2: 706]
Return: low range

Enquiry: # bin label for AAAACUAGAGGAUAUACGUACAUGUCAAAAGACGUGAAGGGACAUGAGGAUCACCCAUGUAGAAGGCUAGAAAA [JL Stem Breaker 9]
Return: high range

Enquiry: # bin label for AACAGUACAGGAUAUACAUGAGGAUCACCCAUGUGAAAAUUAAGUGGCGUACCACAAGGUAGAAGGGUACUGGA [Moding Maslow Revisited (73) 27]
Return: high range

Enquiry: # bin label for AAAAUGUGAGGAUAUCUGGAUAGGAAAAAGAAAACCUAUCCAGAGAAGGCACAUGAGGAUCACCCAUGUAAAAA [JL cataway mod 4]
Return: high range

Enquiry: # bin label for GCUUGGGUAGGAUAUACAUGAGGAUCACCCAUGUGAGAGAAAAAAGUGAGAAAGAAAAGUAGAAGGACUUGAGG [salish99-ex3-83]
Return: high range
